Tested on: Haemophilus parainfluenzae
ASSAY_DETAILS: growth AUC normalised to DMSO control (fraction of control); higher = less growth inhibition, active = hit call of the paper
RUN_PARAMETERS: 20 µM
Structures can show the parent of a compound that is named as a salt.
Provide the recorded growth AUC normalised to DMSO control for the entries that follow.
Give bare numbers.

O=C(C1CCCCC1)N1CC(=O)N2CCc3ccccc3C2C1 (centres undefined) | 1.04
CN1[C@@H]2CC[C@H]1C[C@@H](OC1c3ccccc3CCc3ccccc31)C2 [Deptropine citrate] | 0.95
CCCCCN(C)CCC(O)(P(=O)(O)O)P(=O)(O)O [Ibandronate sodium] | 0.995
CCN(CC)CCNC(=O)COc1ccc(OC)cc1 [Mefexamide hydrochloride] | 0.985
CN1[C@@H]2CC[C@H]1C[C@@H](OC(c1ccccc1)c1ccccc1)C2 [Benztropine mesylate] | 1

Field: growth AUC normalised to DMSO control. Fill in for each record below.
1. CNC[C@H](O)[C@@H](O)[C@H](O)[C@H](O)CO
2. NCC[C@H](O)C(=O)N[C@@H]1C[C@H](N)[C@@H](O[C@H]2O[C@H](CN)[C@@H](O)[C@H](O)[C@H]2O)[C@H](O)[C@H]1O[C@H]1O[C@H](CO)[C@@H](O)[C@H](N)[C@H]1O [Amikacin hydrate]
3. CC[C@H](C)C(=O)O[C@H]1C[C@@H](C)C=C2C=C[C@H](C)[C@H](CC[C@@H]3C[C@@H](O)CC(=O)O3)[C@H]21

1. 1.05
2. 0.0269
3. 0.984

FYI, the data here is from the supplement of paper PMC12350171.
